MEASURED TARGET: FXIIIa (Homo sapiens, UniProt P00488)
Construct: purchased Haematologic Technologies; host or cells: human plasma
RUN DESCRIPTION: bisubstrate, fluorescence-based trans-glutamination assay
Assay type: biochemical
MEASUREMENT SETUP: logistic fit eq 1
Excerpt: A series of 27 sulfonated molecules (Figure 3) was screened for inhibition of human FXIIIa using a modified bisubstrate, fluorescence-based trans-glutamination assay, as described earlier.[36],[49] Dansylcadaverine and N,N-dimethylcasein were used as two substrates, which upon FXIIIa-dependence conjugation show a marked increase in fluorescence at 550 nm (λEX = 360 nm). […]
PROPERTY LABEL: HS (Hill slope), FXIIIa inhibition
Enter the number alone.

O=S(=O)(O)c1ccc(/N=N/c2ccc(/N=N/c3c(O)c(S(=O)(=O)O)cc4cc(S(=O)(=O)O)ccc34)c(S(=O)(=O)O)c2)cc1 [compound 17]; 1.5

So the reported HS (Hill slope), FXIIIa inhibition for CN(c1ccc2c(O)c(/N=N/c3ccccc3S(=O)(=O)O)c(S(=O)(=O)O)cc2c1)c1nc(Cl)nc(Nc2cccc(S(=O)(=O)O)c2)n1 [compound 12] , on FXIIIa (Homo sapiens, UniProt P00488), turned out to be 1.0

Item NC(=O)CI [Iodoacetamide, reference compound] was tested on FXIIIa (Homo sapiens, UniProt P00488); the reported HS (Hill slope), FXIIIa inhibition is 0.8

// assay FXIIIa (Homo sapiens, UniProt P00488), entry Cc1[nH]n(-c2cc(Cl)c(S(=O)(=O)O)cc2Cl)c(=O)c1/N=N/c1cc(Nc2nc(Cl)nc(Nc3ccc(S(=O)(=O)O)cc3)n2)ccc1S(=O)(=O)O [compound 11] , HS (Hill slope), FXIIIa inhibition value = 0.9

====

MEASURED TARGET: factor Xa (Homo sapiens)
Construct: Human plasma proteins such as FXIIIa, thrombin, factor Xa, and factor XIa; purchased Haematologic Technologies; host or cells: human plasma
RUN DESCRIPTION: chromogenic substrate hydrolysis assay, factor Xa
Assay type: biochemical
MEASUREMENT SETUP: Tris-HCl pH 7.4, 37 °C; > values from highest concentration used; read-out: FXa IC50
Description: One of the motivations for targeting anion-binding sites on human FXIIIa was to achieve selectivity in inhibition over closely related enzymes such as other clotting serine proteases or other transglutaminases and cysteine proteases. Human plasma proteins such as FXIIIa, thrombin, factor Xa, and factor XIa were procured from Haematologic Technologies. Recombinant human TG-2 was sourced from Tocris Bioscience. Their activities were validated according to the supplier’s instructions. […]
Listed below: IC50 values for each entry.
The answer is to be given in µM; state only the numeric part.

Nc1c(/N=N/c2ccc(Nc3nc(Cl)nc(Nc4cccc(S(=O)(=O)O)c4)n3)cc2S(=O)(=O)O)c(S(=O)(=O)O)cc2c(O)c(/N=N/c3ccc(Nc4nc(Cl)nc(Nc5cccc(S(=O)(=O)O)c5)n4)cc3S(=O)(=O)O)ccc12; 31

Lab note: Nc1c(S(=O)(=O)O)cc(Nc2ccc(Nc3nc(Cl)nc(Nc4ccccc4S(=O)(=O)O)n3)c(S(=O)(=O)O)c2)c2c1C(=O)c1ccccc1C2=O gave IC50 of 63.5

====

MEASURED TARGET: factor Xa (Homo sapiens, UniProt P00742)
Construct: Human plasma proteins such as FXIIIa, thrombin, factor Xa, and factor XIa; purchased Haematologic Technologies; host or cells: human plasma
Sequence (P00742 235-488 limits assumed): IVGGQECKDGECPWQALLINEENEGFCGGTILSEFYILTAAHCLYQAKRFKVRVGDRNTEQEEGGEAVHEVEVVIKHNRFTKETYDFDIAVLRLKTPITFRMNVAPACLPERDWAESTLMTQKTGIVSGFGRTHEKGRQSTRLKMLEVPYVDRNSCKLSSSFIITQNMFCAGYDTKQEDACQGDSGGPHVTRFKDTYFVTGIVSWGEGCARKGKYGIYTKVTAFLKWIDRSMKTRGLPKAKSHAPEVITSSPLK
Sequence (P00742 41-179 limits assumed): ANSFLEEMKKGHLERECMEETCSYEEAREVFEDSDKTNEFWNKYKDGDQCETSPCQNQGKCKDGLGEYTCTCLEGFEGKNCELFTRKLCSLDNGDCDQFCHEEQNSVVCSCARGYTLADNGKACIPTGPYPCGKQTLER
RUN DESCRIPTION: chromogenic substrate hydrolysis assay, factor Xa
Format: biochemical
PROPERTY LABEL: selectivity index for FXIIIa over factor Xa

Nc1c(S(=O)(=O)O)cc(Nc2ccc(Nc3nc(Cl)nc(Nc4ccccc4S(=O)(=O)O)n3)c(S(=O)(=O)O)c2)c2c1C(=O)c1ccccc1C2=O [compound 13]; 20 fold

Memo: Nc1c(/N=N/c2ccc(Nc3nc(Cl)nc(Nc4cccc(S(=O)(=O)O)c4)n3)cc2S(=O)(=O)O)c(S(=O)(=O)O)cc2c(O)c(/N=N/c3ccc(Nc4nc(Cl)nc(Nc5cccc(S(=O)(=O)O)c5)n4)cc3S(=O)(=O)O)ccc12 [compound 14] , reported selectivity index for FXIIIa over factor Xa: 6 fold

Nc1c(/N=N/c2ccc(S(=O)(=O)CCOS(=O)(=O)O)cc2)c(S(=O)(=O)O)cc2cc(S(=O)(=O)O)c(/N=N/c3ccc(S(=O)(=O)CCOS(=O)(=O)O)cc3)c(O)c12 [compound 16] has a reported selectivity index for FXIIIa over factor Xa of > 208 fold

====

Here the recorded pIC50 is given for each entry.
MEASURED TARGET: thrombin (Homo sapiens)
Construct: Human plasma proteins such as FXIIIa, thrombin, factor Xa, and factor XIa
RUN DESCRIPTION: chromogenic substrate hydrolysis assay, thrombin
MEASUREMENT SETUP: Tris-HCl pH 7.4, 37 °C; > values from highest concentration used
pIC50: −log10 of the molar value.

Examples with their reported pIC50 follow.
Nc1c(S(=O)(=O)O)cc(Nc2ccc(Nc3nc(Cl)nc(Nc4ccccc4S(=O)(=O)O)n3)c(S(=O)(=O)O)c2)c2c1C(=O)c1ccccc1C2=O [compound 13]; 4.06
Nc1c(/N=N/c2ccc(Nc3nc(Cl)nc(Nc4cccc(S(=O)(=O)O)c4)n3)cc2S(=O)(=O)O)c(S(=O)(=O)O)cc2c(O)c(/N=N/c3ccc(Nc4nc(Cl)nc(Nc5cccc(S(=O)(=O)O)c5)n4)cc3S(=O)(=O)O)ccc12 [compound 14]; < 3.30

Now examine the next entry.
// recorded pIC50 for Nc1c(/N=N/c2ccc(S(=O)(=O)CCOS(=O)(=O)O)cc2)c(S(=O)(=O)O)cc2cc(S(=O)(=O)O)c(/N=N/c3ccc(S(=O)(=O)CCOS(=O)(=O)O)cc3)c(O)c12 [compound 16] : < 3.30

====

MEASURED TARGET: FXIIIa (Homo sapiens)
Construct: purchased Haematologic Technologies; host or cells: human plasma
Sequence (P00488 39-732 limits assumed): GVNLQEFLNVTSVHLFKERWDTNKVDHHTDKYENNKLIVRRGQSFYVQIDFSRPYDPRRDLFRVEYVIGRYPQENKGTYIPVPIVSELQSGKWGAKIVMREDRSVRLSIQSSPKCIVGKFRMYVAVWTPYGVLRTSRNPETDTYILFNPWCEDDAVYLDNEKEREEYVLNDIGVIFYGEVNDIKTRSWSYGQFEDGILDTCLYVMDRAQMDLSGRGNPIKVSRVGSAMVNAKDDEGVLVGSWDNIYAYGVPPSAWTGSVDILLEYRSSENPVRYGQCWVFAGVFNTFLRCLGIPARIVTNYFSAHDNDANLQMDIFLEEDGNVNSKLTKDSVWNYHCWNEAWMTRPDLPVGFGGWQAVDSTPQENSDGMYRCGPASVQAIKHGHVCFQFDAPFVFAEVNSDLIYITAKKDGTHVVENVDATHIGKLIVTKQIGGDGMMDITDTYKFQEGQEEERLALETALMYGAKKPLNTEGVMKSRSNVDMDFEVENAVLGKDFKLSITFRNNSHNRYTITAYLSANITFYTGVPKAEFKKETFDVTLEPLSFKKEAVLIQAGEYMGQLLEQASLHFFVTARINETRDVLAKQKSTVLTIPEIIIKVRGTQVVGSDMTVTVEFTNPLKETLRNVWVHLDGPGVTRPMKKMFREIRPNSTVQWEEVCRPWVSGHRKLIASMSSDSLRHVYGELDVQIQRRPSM
RUN DESCRIPTION: bisubstrate, fluorescence-based trans-glutamination assay
Type: biochemical
MEASUREMENT SETUP: pH 7.4, 37 °C; substrates dansylcadaverine and N,N-dimethylcasein
pIC50: −log10 of the molar value.
PROPERTY LABEL: pIC50

Cc1ccc(C(=O)Nc2cc(S(=O)(=O)O)cc3ccc(S(=O)(=O)O)cc23)cc1NC(=O)Nc1cc(C(=O)Nc2cc(S(=O)(=O)O)cc3ccc(S(=O)(=O)O)cc23)ccc1C; < 4.30

# ---- query compound ----
// returns pIC50 for O=C(Nc1cccc(C(=O)Nc2cc(C(=O)Nc3ccc(S(=O)(=O)O)c4cc(S(=O)(=O)O)cc(S(=O)(=O)O)c34)ccc2F)c1)Nc1cccc(C(=O)Nc2cc(C(=O)Nc3ccc(S(=O)(=O)O)c4cc(S(=O)(=O)O)cc(S(=O)(=O)O)c34)ccc2F)c1 with FXIIIa (Homo sapiens); value = < 4.30

====

MEASURED TARGET: FXIIIa (Homo sapiens)
Construct: purchased Haematologic Technologies; host or cells: human plasma
RUN DESCRIPTION: bisubstrate, fluorescence-based trans-glutamination assay
Type: biochemical
MEASUREMENT SETUP: pH 7.4, 37 °C; substrates dansylcadaverine and N,N-dimethylcasein
pIC50: −log10 of the molar value.
PROPERTY LABEL: pIC50

Cc1ccc(C(=O)Nc2ccc(CP(=O)(O)O)cc2CP(=O)(O)O)cc1NC(=O)c1cccc(NC(=O)Nc2cccc(C(=O)Nc3cc(C(=O)Nc4ccc(CP(=O)(O)O)cc4CP(=O)(O)O)ccc3C)c2)c1; < 3.00
Cc1ccc(C(=O)Nc2ccc(S(=O)(=O)O)c3cc(S(=O)(=O)O)cc(S(=O)(=O)O)c23)cc1NC(=O)c1cccc(NC(=O)Nc2cccc(C(=O)Nc3cc(C(=O)Nc4ccc(S(=O)(=O)O)c5cc(S(=O)(=O)O)cc(S(=O)(=O)O)c45)ccc3C)c2)c1; 4.11

# context switch: different compound, same pIC50
GET /values?item= O=C(Nc1cc(C(=O)Nc2ccc(S(=O)(=O)O)cc2)cc(C(=O)Nc2ccc(S(=O)(=O)O)cc2)c1)Nc1cc(C(=O)Nc2ccc(S(=O)(=O)O)cc2)cc(C(=O)Nc2ccc(S(=O)(=O)O)cc2)c1 &system= FXIIIa (Homo sapiens) returns pIC50: < 4.30

Measured values drawn from paper PMC11256326 for this set.
